Biological target: human GLP-1 receptor (human, UniProt P43220 24-463)
Experiment: cell-based or functional assay
readout.type: hGLPIR cAMP EC50 ratio

The examples below pair each entry with its known result.
YXEGTXTSDXSIXLDXKAQXAFIXXLIEGGPSSGAPPPS (Aib2; αMeF(2F)6; 4Pal10; αMeL13; Orn16; K17((2-[2-(2-Amino-ethoxy)-ethoxy]-acetyl)2-(εK)-CO-(CH2)18-CO2H); Aib20; D-Glu24; αMeY25; C-terminal NH2) [Peptide 251]: 1.37
YXEGTXTSDYSIXLDKKAQXEFIEYLIEGGPSSG (Aib2; αMeF6; αMeL13; K17((2-[2-(2-Amino-ethoxy)-ethoxy]-acetyl)2-(γGlu)-CO-(CH2)18-CO2H); Aib20; C-terminal NH2) [Peptide 123]: 1.58
YXEGTXTSDYSIXLDKKAQXXFIEYLIEGGPSSGAPPPS (Aib2; αMeF6; αMeL13; K17((2-[2-(2-Amino-ethoxy)-ethoxy]-acetyl)2-(γGlu)-CO-(CH2)18-CO2H); Aib20; Aib21; C-terminal NH2) [Peptide 143]: 0.714

Moving on to another binder below.
For this binder ( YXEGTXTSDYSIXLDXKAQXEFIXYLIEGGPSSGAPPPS (not fully specified; Aib2; αMeF(2F)6; Nle13; Orn16; K17((2-[2-(2-Amino-ethoxy)-ethoxy]-acetyl)2-(γGlu)-CO-(CH2)16-CO2H); Aib20; D-Glu24; C-terminal NH2) [Peptide 249] ), measured hGLPIR cAMP EC50 ratio is 0.778

The measurements presented in this section are drawn from patent US20230293638A1.
